Reference source: patent US10221163B2

Assign Serratia marcescens MITC95 to each entry below.
tested on: Serratia marcescens expressing IMP-1 (CL5741); type: cell-based; settings: IMP-1 strain CL5741, with imipenem 1 μg/ml, 95% inhibition of growth
Give bare numbers, in µM.

Would you please look over these solved cases?
chemical-structure	Serratia marcescens MITC95 / µM
NCC(CN)NS(=O)(=O)c1ccc(-c2cccn3ccnc23)c(-c2nn[nH]n2)c1S(N)(=O)=O	1.563
NCc1nc(-c2cccc(-c3ccc(S(=O)(=O)N[C@H]4CNC[C@H]4N)c(S(N)(=O)=O)c3-c3nn[nH]n3)c2)c[nH]1	1.563

Please look at the items below and tell me Serratia marcescens MITC95 for each one, in order.
1. NC[C@H](N)CNS(=O)(=O)c1ccc(-c2cccn3ccnc23)c(-c2nn[nH]n2)c1S(N)(=O)=O
2. NCCNS(=O)(=O)c1ccc(-c2cccc(NC[C@H](O)CN)c2)c(-c2nn[nH]n2)c1S(N)(=O)=O
3. CN1CC(NS(=O)(=O)c2ccc(-c3cccc4[nH]c(N)nc34)c(-c3nn[nH]n3)c2S(N)(=O)=O)C1

1: 3.125; 2: 1.563; 3: 0.7813
